tgt: T1, Human CD137 ECD (human)
T1 construct: entry includes C-terminal His-tag and biotin acceptor peptide; also called human CD137 extracellular domain; 4-1BB
assay_info: Biacore SPR, vs parent H183/L072
quantity_measured: fold change of affinity
// unit must come after the numeric part

binder	fold change of affinity
H183/L072 VL F55M (antibody, name in Kabat numbering, V domains shown, Dual-Ig) VH: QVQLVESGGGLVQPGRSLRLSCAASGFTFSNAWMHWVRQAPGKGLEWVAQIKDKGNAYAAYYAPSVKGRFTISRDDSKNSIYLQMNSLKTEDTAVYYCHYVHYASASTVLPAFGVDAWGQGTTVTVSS VL: DIVMTQSPLSLPVTPGEPASISCQASQELVHMNRNTYLHWYQQKPGQAPRLLIYKVSNRMPGVPDRFSGSGSGTDFTLKISRVEAEDVGVYYCAQGTSVPFTFGQGTKLEIK	0.2 fold
H183/L072 VL N53E (antibody, name in Kabat numbering, V domains shown, Dual-Ig) VH: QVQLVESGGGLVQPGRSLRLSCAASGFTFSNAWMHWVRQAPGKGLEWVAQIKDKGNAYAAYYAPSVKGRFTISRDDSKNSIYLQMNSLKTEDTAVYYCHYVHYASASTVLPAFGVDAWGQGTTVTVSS VL: DIVMTQSPLSLPVTPGEPASISCQASQELVHMNRNTYLHWYQQKPGQAPRLLIYKVSERFPGVPDRFSGSGSGTDFTLKISRVEAEDVGVYYCAQGTSVPFTFGQGTKLEIK	0.2 fold

binder H183/L072 VL P95E (antibody, name in Kabat numbering, V domains shown, Dual-Ig) VH: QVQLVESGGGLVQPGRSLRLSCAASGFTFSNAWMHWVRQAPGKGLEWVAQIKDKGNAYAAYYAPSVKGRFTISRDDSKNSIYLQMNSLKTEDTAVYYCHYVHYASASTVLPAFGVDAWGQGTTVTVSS VL: DIVMTQSPLSLPVTPGEPASISCQASQELVHMNRNTYLHWYQQKPGQAPRLLIYKVSNRFPGVPDRFSGSGSGTDFTLKISRVEAEDVGVYYCAQGTSVEFTFGQGTKLEIK , fold change of affinity observed: 0 fold
